Measured GI50 accompanies every entry in the list below.
system: MDA-MB-231; assay: NCI tumour cell line growth inhibition, 48 h
Calls of active or inactive are those of the source. No stated cut-off is given here; in the data, active = GI50 up to about 1.1 µM and inactive = higher.

Cc1c2ccc3ccccc3c2c[n+]2ccccc12; 21.4 µM (inactive)
O=C(O)CCSC1=NCCN1; > 100 µM (inactive)
COC(=O)C1=C(O)C(C(=O)OC)[C@]2(O)[C@H](C(=O)OC)[C@H]1C[C@@H](c1ccc(Cl)cc1Cl)[C@H]2C(=O)OC (stereo not given in full); 19.5 µM (inactive)
CCNC(=O)Cc1nc2c(N)ncnc2n1C1OC(CO)C(O)C1O (stereo not given); > 100 µM (inactive)
CN(C)CC(CN(C)C)c1ccccn1; > 100 µM (inactive)

*Q* Look up GI50 for this compound: CC(NC(=O)NC(C)(C)C)NC(=O)C(N)CC(=O)O (stereo not given)
*A* > 100 µM (inactive)

*Q* Look up GI50 for this compound: COc1cc2cc(C(=O)Nc3cc4n(n3)-c3ccccc3C4)[nH]c2c(OC)c1OC
*A* 8.04 µM (inactive)

*Q* Look up GI50 for this compound: COc1c(C)c(C/C=C(\C)CCCCO[Si](c2ccccc2)(c2ccccc2)C(C)(C)C)c(OC)c(OC)c1OC
*A* > 100 µM (inactive)

*Q* Look up GI50 for this compound: Cc1nc(=O)[nH]c2c1C(=O)N(C(C)C)C(NC(C)C)S2 (stereo not given)
*A* > 100 µM (inactive)

*Q* Look up GI50 for this compound: NP(=O)(OCC1=CC(=O)c2ccccc2C1=O)N(CCBr)CCBr (stereo not given)
*A* 11.4 µM (inactive)

---

test system: UO-31; assay: NCI tumour cell line growth inhibition, 48 h
Active and inactive are the calls of the source. Rule as the data show it: active = GI50 up to about 1.1 µM and inactive = higher.
One label from this list, please: active, inactive

Here are 3 compounds together with their reported answers.
CN(C)CCC(C(=O)C(C)(C)C)c1ccccn1 (stereo unspecified); inactive
Cc1c(C(=O)NNc2ccccc2)n2c(S)nnc2c2ccccc12; inactive
CC1=C(c2cc(C(=O)Nc3ccc(Cl)c(Cl)c3)nc(N)n2)Sc2ccccc2N1; inactive

*Q* Hi, sorry to bother you, what did the test record for CN1c2ccccc2C2c3c(O)ccc(O)c3C=C([N+](=O)[O-])C21 (stereo unspecified) ?
*A* active

*Q* Hi, sorry to bother you, what did the test record for CSC(SC)=C1CC(=O)Nc2ccccc2C1=O ?
*A* inactive

*Q* Hi, sorry to bother you, what did the test record for COC(=O)C1=C(C)N(NC(=O)c2ccccc2)C2(O)CCCC(=O)C12C (stereo unspecified) ?
*A* inactive

*Q* Hi, sorry to bother you, what did the test record for CC(=O)OCC1OC(n2c(C)c(C)c(C)c(C#N)c2=S)C(OC(C)=O)C(OC(C)=O)C1OC(C)=O (stereo unspecified) ?
*A* inactive

*Q* Hi, sorry to bother you, what did the test record for N#Cc1ccccc1NC(=O)C(O)C(O)C(O)C(O)C=O (stereo unspecified) ?
*A* inactive

*Q* Hi, sorry to bother you, what did the test record for CC(C)OP(=O)(OC(C)C)C(Nc1cccc(C(F)(F)F)c1)c1ccccc1 (stereo unspecified) ?
*A* inactive

*Q* Hi, sorry to bother you, what did the test record for OC1CCCC1C(O)(C(F)(F)F)C(F)(F)F (stereo unspecified) ?
*A* inactive

*Q* Hi, sorry to bother you, what did the test record for COc1cc(O)c(C(=O)C2Cc3ccccc32)c(OC)c1 (stereo unspecified) ?
*A* inactive

---

system: TK-10; assay: NCI tumour cell line growth inhibition, 48 h
Active and inactive are the calls of the source. No stated cut-off is given here; in the data, active = GI50 up to about 1.1 µM and inactive = higher. Where a SMILES comes first, the peptide text is derived from it. [ ]: non-standard residue; d: D form. Aoe = N[C@@H](CCCCCC(=O)[C@@H]1CO1)C(=O)O
One label from this list, please: true for active, false for inactive

Here are 2 molecules together with their reported answers.
O=S1(=O)N=C(SCc2ccccc2)N(c2ccccc2)c2ccncc21; false
O=C1N[C@@H](Cc2ccccc2)C(=O)N2CCC[C@@H]2C(=O)N[C@@H](CCCCCC(=O)[C@@H]2CO2)C(=O)N[C@H]1Cc1ccccc1 [TRAPOXIN B] (cyclo(FF[dP][Aoe])); true

*Q* Hi, sorry to bother you, what did the test record for C[n+]1c2ccccc2c(C(=O)Nc2ccc(S(=O)(=O)N=C(N)N)cc2)c2ccccc21 ?
*A* false

*Q* Hi, sorry to bother you, what did the test record for CC1(C)N=C(/C(Cl)=[N+](/[O-])C(=O)c2ccc(F)cc2)C(C)(C)N1O ?
*A* false

---

system: OVCAR-5; assay: NCI tumour cell line growth inhibition, 48 h
Calls of active or inactive are those of the source. Rule as the data show it: active = GI50 up to about 1.1 µM and inactive = higher.
reported.metric: GI50

O=C(O)c1ccccc1/C=C1/Nc2ccccc2C1=O; > 100 µM (inactive)
COC(=O)c1ccccc1NCc1cc(O)ccc1O; 29.4 µM (inactive)
COc1cc(N2C(=O)C(=O)C3(CCCCC3)C2=O)cc(OC)c1OC; > 100 µM (inactive)

*Q* Provide value of GI50 for this record tested with OVCAR-5: O=C(N/C(=C\c1ccc(/C=C(\NC(=O)c2ccccc2)c2nc3cc(Cl)ccc3[nH]2)cc1)c1nc2cc(Cl)ccc2[nH]1)c1ccccc1
*A* > 100 µM (inactive)

*Q* Provide value of GI50 for this record tested with OVCAR-5: N=C(N)NCCCC(NCc1c2ccccc2[n+]([O-])c2ccccc12)C(=O)O (centres undefined)
*A* > 100 µM (inactive)

*Q* Provide value of GI50 for this record tested with OVCAR-5: Cc1c(C(=O)/C=C/c2ccccc2O)c(=O)n(-c2ccccc2)n1C
*A* 66.8 µM (inactive)

*Q* Provide value of GI50 for this record tested with OVCAR-5: C/C(=C1/N=C(c2cc([N+](=O)[O-])ccc2Cl)N(C2=CC=C(Cl)CC2)C1=O)c1cc2ccccc2oc1=O
*A* 41.5 µM (inactive)

*Q* Provide value of GI50 for this record tested with OVCAR-5: CSC(SC)=C1CC(=O)Nc2ccccc2C1=O
*A* > 100 µM (inactive)

*Q* Provide value of GI50 for this record tested with OVCAR-5: Cc1nc2sccn2c1/C=C1/C(=O)Nc2cccc(Cl)c21
*A* 73.5 µM (inactive)

*Q* Provide value of GI50 for this record tested with OVCAR-5: C[n+]1c2ccccc2c(C(=O)Nc2ccc(S(=O)(=O)N=C(N)N)cc2)c2ccccc21
*A* > 100 µM (inactive)

*Q* Provide value of GI50 for this record tested with OVCAR-5: CC1=C(C(=O)N[C@@H](Cc2ccccc2)C(=O)O)N2C(=O)[C@@H](NC(=O)[C@@H](N)CC(C)C)[C@H]2SC1
*A* > 100 µM (inactive)

*Q* Provide value of GI50 for this record tested with OVCAR-5: O=C(CSc1nc(O)nc2[nH]cnc12)Nc1ccccc1
*A* > 100 µM (inactive)

*Q* Provide value of GI50 for this record tested with OVCAR-5: O=C1/C(=C\c2cccc(Oc3ccccc3)c2)S(=O)(=O)C(c2ccccc2)N1c1ccc(Cl)cc1 (centres undefined)
*A* 11.7 µM (inactive)

---

tested on: SNB-19; assay: NCI tumour cell line growth inhibition, 48 h
The source made the active and inactive calls. Cut-off read from the data, not from the text of the source: active = GI50 up to about 1.1 µM and inactive = higher.
reported.metric: GI50

// below: answered compounds
CNC(=O)Nn1c(SC)nc2ccccc21; > 100 µM (inactive)
Cc1c(-c2ccccc2)c(C#N)c2nnn(C)c(=O)n12; > 100 µM (inactive)
O=C1CSC(c2cccc(Oc3ccccc3)c2)N1c1ccc(Cl)cc1 (stereo unspecified); 54.8 µM (inactive)
COc1ccc2cc3n(c(=O)c2c1)CCc1c-3cc(OC)c(OC)c1OC; > 100 µM (inactive)
Cc1ccc(S(=O)(=O)O)cc1.c1cc2c(c(NC3=NCCN3)c1)CCCC2; > 100 µM (inactive)

*Q* Look up GI50 for this compound: CC(C)[C@]12O[C@H]1[C@@H]1O[C@]13[C@]1(O[C@H]1C[C@H]1C4=C(CC[C@@]13C)C(=O)OC4)[C@@H]2O [TRIPTOLIDE]
*A* 0.104 µM (active)

*Q* Look up GI50 for this compound: Cc1ncc(CCl)c2c1OC(C)(C)OC2
*A* 63.8 µM (inactive)

*Q* Look up GI50 for this compound: Cc1nc(C(=O)O)c2ccccc2n1
*A* > 100 µM (inactive)

*Q* Look up GI50 for this compound: N=C(N)NC(=N)Nc1ccccc1.Sc1nc2ccccc2s1
*A* > 100 µM (inactive)

*Q* Look up GI50 for this compound: CCOC(=O)C(NC(=O)c1ccccc1)(Nc1ccc(S(=O)(=O)Nc2cc(C)nc(C)n2)cc1)C(F)(F)F (stereo unspecified)
*A* > 100 µM (inactive)

*Q* Look up GI50 for this compound: Cc1ccc([N+](=O)[O-])cc1S(=O)(=O)Nc1ccc(C2=NOC(c3ccco3)C2)cc1 (stereo unspecified)
*A* 18.7 µM (inactive)

---

system: HOP-62; experiment: NCI tumour cell line growth inhibition, 48 h
The source made the active and inactive calls. Rule as the data show it: active = GI50 up to about 1.1 µM and inactive = higher.
Measured GI50 accompanies every entry in the list below.

// below: answered compounds
Nn1c(-c2ccccc2Cl)nc2ccccc2c1=O; > 100 µM (inactive)
CN(C)c1ccc(/C=N/n2c(-c3ccccc3)nc3ccccc3c2=O)cc1; > 100 µM (inactive)

Now for another entry.
*Q* Provide value of GI50 for this record tested with HOP-62: CN(C)CCNC(=O)c1cccc2c1Oc1cccc([N+](=O)[O-])c1O2
*A* 16.1 µM (inactive)
